# Tested on: MDR1
# method_description: Intrinsic permeability of the compound in MDCK cells expressing MDR1
# Format: ADME, cell-based, Canis lupus familiaris
# test_settings: dog
assay_readout: Papp (×10⁻⁶ cm/s)

Examples from the recorded data:
O=C(Nc1ccc(-c2nnc(NCCCN3CCN4CCC3CC4)o2)cc1)c1ccccc1F ... 4.2
O=C(Nc1ccc(-c2nnc(NCCCCN3CCC(F)CC3)o2)cc1)c1ccccc1F ... 70.3
O=C(Nc1ccc(-c2nnc(NCCCCN3CCCCC3)o2)cc1)C1CCCCC1 ... 9.8
O=C(Nc1ccc(-c2nnc(NCCCCN3CCOCC3)o2)c(F)c1)c1ccccc1F ... 73.6
O=C(Nc1ccc(-c2nnc(NCCCCN3CCOCC3)o2)cc1)c1ccccc1F ... 75.6
COc1cc(NC(=O)c2ccccc2F)ccc1-c1nnc(NCCCCN2CCCCC2)o1 ... 25.1
O=C(Nc1ccc(-c2nnc(NCCCCN3CCCCC3)o2)cc1)c1ccccc1 ... 33.7
O=C(Nc1ccc(-c2nnc(NCCCCN3CCOCC3)o2)c(F)c1)c1ccccc1 ... 28.5

I. COc1cc(NC(=O)c2ccccc2F)ccc1-c1nnc(NCCCCN2CCOCC2)o1
II. O=C(Nc1ccc(-c2nnc(NCCCCN3CCCCC3)o2)cc1)c1ccccc1F
Request: Field: lower recorded Papp (choose I or II ) Choose, then provide that item's label.
Response: I

----------
# method_description: Ratio of drug level in brain to blood in CD1 mouse at 5 mg/kg, po after 3 hrs
# Type: ADME, organism-based
# Parameters: dose 5 mg/kg, route oral
assay_readout: Kp at 3 h

O=C(Nc1ccc(-c2nnc(NCCCCN3CCOCC3)o2)c(F)c1)c1ccccc1F ... 0.53
O=C(Nc1ccc(-c2nnc(NCCCCN3CCOCC3)o2)cc1)c1ccccc1F ... 0.62

----------
# method_description: Half life in Sprague-Dawley rat at 1 mg/kg, iv
# Format: ADME, organism-based
# Set-up: dose 1 mg/kg, route intravenous
# test_settings: in vivo
assay_readout: half-life (h)

P. O=C(Nc1ccc(-c2nnc(NCCCCN3CCOCC3)o2)cc1)c1ccccc1F
Q. O=C(Nc1ccc(-c2nnc(NCCCCN3CCCCC3)o2)cc1)c1ccccc1F
Request: API: POST /compare with P and Q ; response names the item with higher half-life. Answer = label.
Response: Q
(Q: 2.7 h, P: 1.6 h)
